Test system: K. aerogenes ATCC 13048
Format: cell-based, Klebsiella aerogenes
Conditions: ATCC 13048, 18 h
Residues, ends and D or L forms follow the SMILES beside them.
Recorded MIC E2 values for a group of compounds are listed next.
Kindly answer with a numeric value in µg/mL, unit omitted.

Check out these entries, answers already filled in.
Compound	Measured Number
CCCCCCCCCCCCCC(=O)N[C@@H](C)C(=O)N[C@@H](CCCNC(=N)N)C(=O)N[C@@H](CCCNC(=N)N)C(N)=O [compound 10, C14-ARR-NH2] (HELM PEPTIDE1{[CCCCCCCCCCCCCC(=O)[*:2]].A.R.R.[am]}$$$$V2.0)	256
CCCCCCCCCCCCCCCC(=O)N[C@@H](CCCNC(=N)N)C(=O)N[C@@H](CCCNC(=N)N)C(N)=O [compound 5, C16-RR-NH2, reference compound] (HELM PEPTIDE1{[CCCCCCCCCCCCCCCC(=O)[*:2]].R.R.[am]}$$$$V2.0)	32
CCCCCCCCCCCCCC(=O)N[C@@H](CCC)C(=O)N[C@@H](CCCNC(=N)N)C(=O)N[C@@H](CCCNC(=N)N)C(N)=O [compound 70, C14-NvaRR-NH2] (HELM PEPTIDE1{[CCCCCCCCCCCCCC(=O)[*:2]].[Nva].R.R.[am]}$$$$V2.0)	128

Kindly review the next compound as well.
**Q:** Lab note: need MIC E2 for CCCCCCCCCCCC(=O)N[C@@H](CCCC)C(=O)N[C@@H](CCCNC(=N)N)C(=O)N[C@@H](CCCNC(=N)N)C(N)=O [compound 65, C12-NleRR-NH2] (HELM PEPTIDE1{[CCCCCCCCCCCC(=O)[*:2]].[Nle].R.R.[am]}$$$$V2.0) on K. aerogenes ATCC 13048, anyone have it?
**A:** 256

----------
Recorded MIC CA values for a group of compounds are listed next.
System: C. albicans ATCC 10231
Assay type: cell-based, Candida albicans
Settings: ATCC 10231, 24 h, pH 7
Residues, ends and D or L forms follow the SMILES beside them.
Kindly answer with a numeric value in µg/mL, unit omitted.

**Q:** Need MIC CA of CCCCCCCCCCCCCC(=O)N[C@@H](Cc1c[nH]cn1)C(=O)N[C@@H](CCCNC(=N)N)C(=O)N[C@@H](CCCNC(=N)N)C(N)=O [compound 34, C14-HRR-NH2] (HELM PEPTIDE1{[CCCCCCCCCCCCCC(=O)[*:2]].H.R.R.[am]}$$$$V2.0) , thanks.
**A:** 16

**Q:** Need MIC CA of CCCCCCCCCCCC(=O)N[C@@H](CCC)C(=O)N[C@@H](CCCNC(=N)N)C(=O)N[C@@H](CCCNC(=N)N)C(N)=O [compound 69, C12-NvaRR-NH2] (HELM PEPTIDE1{[CCCCCCCCCCCC(=O)[*:2]].[Nva].R.R.[am]}$$$$V2.0) , thanks.
**A:** 32

----------
Test: Determination of peptide hydrophobicity with RP-HPLC (adjusted retention time)
Type: physicochemical
Settings: Table 3; adjusted retention time as hydrophobicity; RP-HPLC C18, linear 10–55% acetonitrile over 60 min, 0.1% TFA, 25.0 °C, UV 214 nm, triplicate
Residues, ends and D or L forms follow the SMILES beside them. *: point of attachment. Myristoyl = CCCCCCCCCCCCCC(=O)*; Acm = CC(=O)NC*
Recorded tR’ values for a group of molecules are listed next.
Kindly answer with a numeric value in min, unit omitted.

Check out these entries, answers already filled in.
Molecule	Measured Number
CCCCCCCCCCCCCC(=O)N[C@@H](CSCNC(C)=O)C(=O)N[C@@H](CCCNC(=N)N)C(=O)N[C@@H](CCCNC(=N)N)C(N)=O [compound 14, C14-C(Acm)RR-NH2] (Myristoyl-Cys(Acm)-Arg-Arg-NH2)	43.24
CCCCCCCCCCCCCC(=O)N[C@@H](Cc1ccccc1)C(=O)N[C@@H](CCCNC(=N)N)C(=O)N[C@@H](CCCNC(=N)N)C(N)=O [compound 26, C14-FRR-NH2] (HELM PEPTIDE1{[CCCCCCCCCCCCCC(=O)[*:2]].F.R.R.[am]}$$$$V2.0)	47.75

**Q:** Need tR’ of CCCCCCCCCCCCCC(=O)NCC(=O)N[C@@H](CCCNC(=N)N)C(=O)N[C@@H](CCCNC(=N)N)C(N)=O , thanks.
**A:** 40.53

**Q:** Need tR’ of CCCCCCCCCCCCCC(=O)N[C@H](C(=O)N[C@@H](CCCNC(=N)N)C(=O)N[C@@H](CCCNC(=N)N)C(N)=O)C(C)C [compound 94, C14-VRR-NH2] (HELM PEPTIDE1{[CCCCCCCCCCCCCC(=O)[*:2]].V.R.R.[am]}$$$$V2.0) , thanks.
**A:** 44.02

**Q:** Need tR’ of CCCCCCCCCCCC(=O)N[C@H](C(=O)N[C@@H](CCCNC(=N)N)C(=O)N[C@@H](CCCNC(=N)N)C(N)=O)[C@@H](C)O [compound 89, C12-TRR-NH2] (HELM PEPTIDE1{[CCCCCCCCCCCC(=O)[*:2]].T.R.R.[am]}$$$$V2.0) , thanks.
**A:** 33.82

----------
Test system: human red blood cells (hRBCs)
Assay type: cell-based
Settings: red cells of human, 1 h
Residues, ends and D or L forms follow the SMILES beside them.
Property Measured: HC50

Compound	HC50
CCCCCCCCCCCCCC(=O)N[C@@H](CCCNC(=N)N)C(=O)N[C@@H](CCCNC(=N)N)C(=O)N[C@@H](CCCNC(=N)N)C(N)=O [compound 82, C14-RRR-NH2] (HELM PEPTIDE1{[CCCCCCCCCCCCCC(=O)[*:2]].R.R.R.[am]}$$$$V2.0)	211.32 (±9.57) µg/mL

**Q:** Need HC50 of CCCCCCCCCCCC(=O)N[C@H](C(=O)N[C@@H](CCCNC(=N)N)C(=O)N[C@@H](CCCNC(=N)N)C(N)=O)[C@@H](C)CC [compound 37, C12-IRR-NH2] (HELM PEPTIDE1{[CCCCCCCCCCCC(=O)[*:2]].I.R.R.[am]}$$$$V2.0) , thanks.
**A:** 120.40 (±1.55) µg/mL

----------
Tested on: K. pneumoniae ATCC 700603
Format: cell-based, Klebsiella pneumoniae
Conditions: ATCC 700603, 18 h
Residues, ends and D or L forms follow the SMILES beside them.
Property Measured: MIC K (µg/mL)
Kindly answer with a numeric value in µg/mL, unit omitted.

Compound	MIC K, µg/mL
CCCCCCCCCCCCCC(=O)N1CCC[C@H]1C(=O)N[C@@H](CCCNC(=N)N)C(=O)N[C@@H](CCCNC(=N)N)C(N)=O [compound 74, C14-PRR-NH2]	256

**Q:** Need MIC K of CCCCCCCCCCCCCC(=O)N[C@@H](C)C(=O)N[C@@H](CCCNC(=N)N)C(=O)N[C@@H](CCCNC(=N)N)C(N)=O [compound 10, C14-ARR-NH2] (HELM PEPTIDE1{[CCCCCCCCCCCCCC(=O)[*:2]].A.R.R.[am]}$$$$V2.0) , thanks.
**A:** 256

**Q:** Need MIC K of CCCCCCCCCCCCCC(=O)N[C@@H](CC(N)=O)C(=O)N[C@@H](CCCNC(=N)N)C(=O)N[C@@H](CCCNC(=N)N)C(N)=O [compound 62, C14-NRR-NH2] (HELM PEPTIDE1{[CCCCCCCCCCCCCC(=O)[*:2]].N.R.R.[am]}$$$$V2.0) , thanks.
**A:** 128

**Q:** Need MIC K of CCCCCCCCCCCC(=O)N[C@@H](CC(C)C)C(=O)N[C@@H](CCCNC(=N)N)C(=O)N[C@@H](CCCNC(=N)N)C(N)=O [compound 45, C12-LRR-NH2] (HELM PEPTIDE1{[CCCCCCCCCCCC(=O)[*:2]].L.R.R.[am]}$$$$V2.0) , thanks.
**A:** 256

----------
Test system: K. aerogenes ATCC 13048
Type: cell-based, Klebsiella aerogenes
Conditions: ATCC 13048, 18 h
Residues, ends and D or L forms follow the SMILES beside them.
Property Measured: MIC E2 (µg/mL)
Kindly answer with a numeric value in µg/mL, unit omitted.

Compound	MIC E2 (µg/mL)
CCCCCCCCCCCCCC(=O)N[C@@H](CCCNC(=N)N)C(=O)N[C@@H](CCCNC(=N)N)C(N)=O [compound 4, C14-RR-NH2, reference compound] (HELM PEPTIDE1{[CCCCCCCCCCCCCC(=O)[*:2]].R.R.[am]}$$$$V2.0)	256
CCCCCCCCCCCCCC(=O)N[C@@H](CO)C(=O)N[C@@H](CCCNC(=N)N)C(=O)N[C@@H](CCCNC(=N)N)C(N)=O [compound 86, C14-SRR-NH2] (HELM PEPTIDE1{[CCCCCCCCCCCCCC(=O)[*:2]].S.R.R.[am]}$$$$V2.0)	128
CCCCCCCCCCCC(=O)N[C@@H](Cc1ccc(O)cc1)C(=O)N[C@@H](CCCNC(=N)N)C(=O)N[C@@H](CCCNC(=N)N)C(N)=O [compound 101, C12-YRR-NH2] (HELM PEPTIDE1{[CCCCCCCCCCCC(=O)[*:2]].Y.R.R.[am]}$$$$V2.0)	128

Kindly review the next compound as well.
**Q:** Lab note: need MIC E2 for CCCCCCCCCCCC(=O)N[C@@H](CC(C)C)C(=O)N[C@@H](CCCNC(=N)N)C(=O)N[C@@H](CCCNC(=N)N)C(N)=O [compound 45, C12-LRR-NH2] (HELM PEPTIDE1{[CCCCCCCCCCCC(=O)[*:2]].L.R.R.[am]}$$$$V2.0) on K. aerogenes ATCC 13048, anyone have it?
**A:** 256
